experiment: Solubility in organic solvents; assay type: physicochemical; conditions: oil or lipid, thermodynamic from solid; range over the edible oils of Table 2; read-out: solubility in edible oils
Measured parameter: solubility at 24 h

The value of solubility at 24 h measured for the molecule `COc1ccc2c(c1)-c1nc(SCC(F)(F)F)n(C)c(=O)c1C(C)(C)C2` turned out to be 20 to 37.2 mg/mL

* * *

assay: Solubility in water containing sodium dodecyl sulfate (SDS); format: physicochemical; conditions: 0.5% (w/v) SDS solution, aqueous with cosolvent or surfactant or cyclodextrin, thermodynamic from solid; 0.5% (w/v) SDS, 48 h, 37°C, 200 rpm
Measured parameter: solubility at 48 h

The value of solubility at 48 h measured for the compound COc1ccc2c(c1)-c1nc(SCC(F)(F)F)n(C)c(=O)c1C(C)(C)C2 [CCG-211790] turned out to be 26.8 µg/mL

* * *

experiment: Mammalian cell cytotoxicity assay (CCK-8); format: cell-based, human; conditions: human, TZM-bL cells (HeLa cell derivative), TZM-bL cells, 6.25 µM, 24 h, single samples; read-out: Cell viability %
Measured parameter: viability at 24 h, 6.25 µM (%)
Give bare numbers, in %.

The value of viability at 24 h, 6.25 µM measured for the compound COc1ccc2c(c1)-c1nc(SCC(F)(F)F)n(C)c(=O)c1C(C)(C)C2 [CCG-211790] turned out to be 79.6

* * *

experiment: Mammalian cell cytotoxicity assay (CCK-8); assay type: cell-based, human; conditions: human, TZM-bL cells (HeLa cell derivative), TZM-bL cells, 6.25 µM, 24 h; read-out: Mean of cell viability
Measured parameter: viability at 24 h, 6.25 µM
Could you write the number and then its unit?

The value of viability at 24 h, 6.25 µM measured for the molecule `COc1ccc2c(c1)-c1nc(SCC(F)(F)F)n(C)c(=O)c1C(C)(C)C2` turned out to be 84.3%

* * *

test: Solubility in organic solvents; format: physicochemical; conditions: oil or lipid, thermodynamic from solid; Canola oil, room temperature; read-out: Solubility
Measured parameter: solubility at 24 h (mg/mL)
Numbers only, in mg/mL.

The value of solubility at 24 h measured for the compound `COc1ccc2c(c1)-c1nc(SCC(F)(F)F)n(C)c(=O)c1C(C)(C)C2` turned out to be 24.7

* * *

assay: Solubility in water containing sodium dodecyl sulfate (SDS); format: physicochemical; details: 1.0% (w/v) SDS solution, aqueous with cosolvent or surfactant or cyclodextrin, thermodynamic from solid; 1.0% (w/v) SDS, 48 h, 37°C, 200 rpm
Measured parameter: solubility at 48 h (µg/mL)
Numbers only, in µg/mL.

The value of solubility at 48 h measured for the compound `COc1ccc2c(c1)-c1nc(SCC(F)(F)F)n(C)c(=O)c1C(C)(C)C2` turned out to be 63.8

* * *

test: Mammalian cell cytotoxicity assay (CCK-8); assay type: cell-based, human; conditions: human, TZM-bL cells (HeLa derivative), TZM-bL cells, 50 μM, 24 h, normalized to DMSO; read-out: cell survival rate (mean of cell viability)
Measured parameter: viability at 24 h, 50 µM (%)
Numbers only, in %.

The value of viability at 24 h, 50 µM measured for the molecule `COc1ccc2c(c1)-c1nc(SCC(F)(F)F)n(C)c(=O)c1C(C)(C)C2` turned out to be 56.1
